Measured RBA values are reported for all entries that follow.
target: Estrogen receptor (Rattus norvegicus) (UniProt P06211+Q62986); assay: Displacement of [3H]estradiol from estrogen receptor of rat uterine cytosol; assay type: protein assay
Give the value, in units of %, as a plain number.

1. O=[N+]([O-])c1cccc(C2=C(c3ccc(O)cc3)c3ccc(O)cc3C2)c1 :: 0.6

Continue with the compound presented below.
Query: # get_value(readout='RBA', item= `Oc1ccc(C2=C(c3ccc(Br)cc3)Cc3cc(O)ccc32)cc1` )
Response: 0.76

----------
target: Estrogen receptor (Rattus norvegicus) (UniProt P06211+Q62986); test: Displacement of [3H]estradiol from estrogen receptor of rat uterine cytosol; assay type: protein assay
Measured RBA values are reported for all entries that follow.
Give the value, in units of %, as a plain number.

1. O=[N+]([O-])c1ccc(C2=C(c3ccccc3)c3ccc(O)cc3C2)cc1 :: 0.46
2. Oc1ccc(C2=C(c3ccccc3)Cc3cc(O)ccc32)cc1 :: 4.7
3. O=[N+]([O-])c1ccc(C2=C(c3ccc(O)cc3)c3ccc(O)cc3C2)cc1 :: 0.69
4. Oc1ccc(C2=C(c3ccccc3)c3ccc(O)cc3C2)cc1 :: 28
5. Cc1ccccc1C1=C(c2ccc(O)cc2)c2ccc(O)cc2C1 :: 30
6. Oc1ccc(C2=C(c3ccccc3C(F)(F)F)Cc3cc(O)ccc32)cc1 :: 38

Query: # get_value(readout='RBA', item= CC1C(c2ccccc2)=C(c2ccccc2)c2ccc(O)cc21 (centres undefined) )
Response: 12

Query: # get_value(readout='RBA', item= `N#Cc1ccc(C2=C(c3ccc(O)cc3)c3ccc(O)cc3C2)cc1` )
Response: 1

Query: # get_value(readout='RBA', item= `Oc1ccc(C2=C(c3cccnc3)Cc3cc(O)ccc32)cc1` )
Response: 0.05
